Values compiled from ChEMBL document CHEMBL4680369.

EXPERIMENTAL_TARGET: Histone deacetylase 2 (Homo sapiens, UniProt Q92769)
Sequence (Q92769 whole entry): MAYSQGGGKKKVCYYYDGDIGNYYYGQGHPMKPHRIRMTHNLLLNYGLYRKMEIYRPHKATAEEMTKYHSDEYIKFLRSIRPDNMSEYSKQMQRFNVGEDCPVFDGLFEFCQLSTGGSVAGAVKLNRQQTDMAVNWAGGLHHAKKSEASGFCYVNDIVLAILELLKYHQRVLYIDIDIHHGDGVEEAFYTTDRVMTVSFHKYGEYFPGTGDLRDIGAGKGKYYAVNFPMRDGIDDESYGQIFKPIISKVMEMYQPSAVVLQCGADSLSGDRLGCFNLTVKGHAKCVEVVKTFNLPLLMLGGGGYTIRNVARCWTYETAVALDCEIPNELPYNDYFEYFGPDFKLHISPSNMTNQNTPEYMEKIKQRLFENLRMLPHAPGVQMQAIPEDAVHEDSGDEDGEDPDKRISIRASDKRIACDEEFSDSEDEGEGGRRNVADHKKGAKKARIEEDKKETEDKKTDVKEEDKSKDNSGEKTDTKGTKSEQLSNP
PROCEDURE_SUMMARY: Inhibition of HDAC2 (unknown origin) using compound purified by microgram-scale HPLC work-flow
Note to self: use 1 (yes) only for IC50 readings below 60 nM; a reading exactly at 60 nM still gets 0 (no).

SMI: CCC(=O)CCCCC[C@H](NC(=O)[C@H]1CC12CCN(C)CC2)c1ncc(-c2cnc(-n3cc(C)cn3)nc2)[nH]1
LABEL: 0 (no)
--
SMI: CCC(=O)CCCCC[C@H](NC(=O)[C@H]1CC12CCN(C)CC2)c1ncc(-c2cnc3cccnc3c2)[nH]1
LABEL: 0 (no)
--
SMI: CCC(=O)CCCCC[C@H](NC(=O)[C@H]1CC12CCN(C)CC2)c1ncc(-c2ccc(C)nc2OC)[nH]1
LABEL: 1 (yes)
--
SMI: CCC(=O)CCCCC[C@H](NC(=O)[C@H]1CC12CCN(CC)CC2)c1ncc(-c2cccc(C(F)(F)F)c2OC)[nH]1
LABEL: 0 (no)
--
SMI: CCC(=O)CCCCC[C@H](NC(=O)[C@H]1CC12CCN(C)CC2)c1ncc(-c2ccc(-n3nc(C)cc3C)cc2)[nH]1
LABEL: 0 (no)
--
SMI: CCC(=O)CCCCC[C@H](NC(=O)[C@H]1CC12CCN(CC)CC2)c1ncc(-c2c(F)cccc2OC)[nH]1
LABEL: 0 (no)

API: the following record is the query input.
Problem: For the compound `CCC(=O)CCCCC[C@H](NC(=O)[C@H]1CC12CCN(CC)CC2)c1ncc(-c2cc([N+](=O)[O-])ccc2OC)[nH]1` , is IC50 under 60 nM? 1 (yes)
